- assay: Proliferation inhibition assay (CellTiter-Glo), Ba/F3 JAK2 wt
- Type: cell-based
- test_conditions: mouse, Ba/F3 (JAK2 wt) cells, with 10 ng/ml rmIL-3, 72 h; read-out: Ba/F3 JAK2 wt + IL3, CC50 3 days
- Protocol: Ba/F3 (JAK2 wt) (ABM, T3076) cells and Ba/F3 (JAK2 V617F) (WuXi AppTec) cells were grown in RPMI-1640 (Gibco, cat. number 21870) supplemented with 10% FBS (Hyclone Laboratories Inc, Cat #SV30160.03), 1× Antibiotic-antimycotic (Gibco, Cat #15240-062), 2× Sodium pyruvate (Paneco, cat #F023), 2× Essential amino acids (Paneco, cat #F115/100), 1× Non-Essential amino acids (Paneco, cat #F116) at 37° C. in 5% CO2 atmosphere. […]
Field: CC50 at 72 h. Provide a value for each of the molecules that follow.

Reference set, count: 5
structure_string	CC50 at 72 h
COc1c(Nc2nc(Nc3cnn(C4CCN(C)CC4)c3)ncc2C(N)=O)cccc1-c1ccccn1	5 to 10 µM
COCCn1cc(Nc2ncc(C(N)=O)c(Nc3cccc(-c4nc5ccccc5o4)c3OC)n2)cn1	> 10 µM
COc1c(Nc2nc(Nc3cnn(C)c3)ncc2C(N)=O)cccc1-c1nc2ccccc2o1	> 10 µM
COc1c(Nc2nc(Nc3cnn(C4CCCCC4)c3)ncc2C(N)=O)cccc1-c1ncn(C)n1	1 to 5 µM
CCCCCCn1cc(Nc2ncc(C(N)=O)c(Nc3cccc(-c4ncn(C)n4)c3OC)n2)cn1	5 to 10 µM

Required: CC50 at 72 h, one value per molecule below.
1. CCOCCn1cc(Nc2ncc(C(N)=O)c(Nc3cccc(-c4nc5ccccc5o4)c3OC)n2)cn1
2. COc1c(Nc2nc(Nc3cnn(C)c3)ncc2C(N)=O)cccc1-c1ncn(C)n1
3. COCCCn1cc(Nc2ncc(C(N)=O)c(Nc3cccc(-c4nc5ccccc5o4)c3OC)n2)cn1

["1 to 5 µM", "> 10 µM", "1 to 5 µM"]

###

- assay: Proliferation inhibition assay (CellTiter-Glo), Ba/F3 JAK2 wt
- Type: cell-based
- test_conditions: mouse, Ba/F3 (JAK2 wt) cells, without IL3, 72 h; read-out: Ba/F3 JAK2 wt, CC50 3 days
assay_readout: CC50 at 72 h

structure_string	assay_readout	test_value
COc1c(Nc2nc(Nc3cnn(CCC(C)C)c3)ncc2C(N)=O)cccc1-c1ncn(C)n1	CC50 at 72 h	> 10 µM
COc1c(Nc2nc(Nc3cnn(CCN(CC(C)C)CC(C)C)c3)ncc2C(N)=O)cccc1-c1ncn(C)n1	CC50 at 72 h	1 to 5 µM
COc1c(Nc2nc(Nc3cnn(CC4CCCCC4)c3)ncc2C(N)=O)cccc1-c1ncn(C)n1	CC50 at 72 h	5 to 10 µM

Note CC50 at 72 h for the compound shown: COc1c(Nc2nc(Nc3cnn(C45CC6CC(CC(C6)C4)C5)c3)ncc2C(N)=O)cccc1-c1ncn(C)n1 1 to 5 µM

Value source: patent US20260217688A1
